Sourced from patent US20260373248A1

# Tested on: hEPO
# procedure text: Quantification of hEPO in serum after IV injection of mRNA (Human EPO ELISA)
# Assay type: in vivo
# measurement context: Balb/c mice, 2.5 μg mRNA IV, serum after 6 hours
Starred links: 1 amine or outer side, 2 acyl side, 3 side chain; linkers in the order of their positions; H or OH if unused. Non-standard residues stand in square brackets, D forms with d. Residues, ends and D or L forms follow the SMILES beside them. *: point of attachment. Gly(N-(3-decanoyloxypropyl)) = CCCCCCCCCC(=O)OCCCNCC(=O)O; N(3-lauroyloxypropyl)Gly = CCCCCCCCCCCC(=O)OCCCNCC(=O)O; Gly(N-(CH2)3O-octanoyl) = CCCCCCCC(=O)OCCCNCC(=O)O; Gly(N-3-morpholinopropyl) = O=C(O)CNCCCN1CCOCC1; N(2-ethylhexyl)Gly = CCCCC(CC)CNCC(=O)O; X2 = CCCCCCC(CCCC)CN(CC(=O)[*:2])[*:1]; N(CH(CH2OH)2)Gly = O=C(O)CNC(CO)CO; N(octyl)Gly = CCCCCCCCNCC(=O)O; NDecylGly = CCCCCCCCCCNCC(=O)O; For = O=C*
measure: log10 hEPO (log10 of the value in ng/mL)
Response schema: value (number) is log10 of hEPO in units of ng/mL.

Example results:
compound="CCCCCCCCCCCC(=O)OCCCN(C=O)CC(=O)N(CCCOC(=O)CCCCCCCCCCC)CC(=O)N(CC(=O)N(CCCN1CCOCC1)CC(=O)N(CCCOC(=O)CCCCCCCCCCC)CC(=O)N(CCCOC(=O)CCCCCCCCCCC)CC(=O)N(CC(N)=O)CC(CC)CCCC)CC(CC)CCCC (centres unmarked) [Compound 81] (For-[N(3-lauroyloxypropyl)Gly][N(3-lauroyloxypropyl)Gly][N(2-ethylhexyl)Gly][Gly(N-3-morpholinopropyl)][N(3-lauroyloxypropyl)Gly][N(3-lauroyloxypropyl)Gly][N(2-ethylhexyl)Gly]-NH2)" target_or_test_system=hEPO measured_value=1.72
compound="CCCCCCCCCCCC(=O)OCCCN(C=O)CC(=O)N(CCCOC(=O)CCCCCCCCCCC)CC(=O)N(CC(=O)N(CCCN1CCOCC1)CC(=O)N(CC(=O)N(CCCOC(=O)CCCCCCCCCCC)CC(=O)N(CCCOC(=O)CCCCCCCCCCC)CC(N)=O)CC(CC)CCCC)CC(CC)CCCC (centres unmarked) [Compound 91] (For-[N(3-lauroyloxypropyl)Gly][N(3-lauroyloxypropyl)Gly][N(2-ethylhexyl)Gly][Gly(N-3-morpholinopropyl)][N(2-ethylhexyl)Gly][N(3-lauroyloxypropyl)Gly][N(3-lauroyloxypropyl)Gly]-NH2)" target_or_test_system=hEPO measured_value=1.24
compound="CCCCCCCCCC(=O)OCCCN(CC(=O)N(CC(N)=O)CC(CC)CCCC)C(=O)CN(CCCCCCCC)C(=O)CN(CC(CC)CCCC)C(=O)CN(CCCOC(=O)CCCCCCCCC)C(=O)CN(CCCCCCCC)C(=O)CNC(CO)CO (centres unmarked) [Compound 32] (H-[N(CH(CH2OH)2)Gly][N(octyl)Gly][Gly(N-(3-decanoyloxypropyl))][N(2-ethylhexyl)Gly][N(octyl)Gly][Gly(N-(3-decanoyloxypropyl))][N(2-ethylhexyl)Gly]-NH2)" target_or_test_system=hEPO measured_value=2.81
compound="CCCCCCCCCCCC(=O)OCCCN(CC(N)=O)C(=O)CN(CC(CC)CCCC)C(=O)CN(CCCCCCCCCC)C(=O)CN(CC(CC)CCCC)C(=O)CN(CCCOC(=O)CCCCCCCCCCC)C(=O)CN(CC(CC)CCCC)C(=O)CNC(CO)CO (centres unmarked) [Compound 59] (H-[N(CH(CH2OH)2)Gly][N(2-ethylhexyl)Gly][N(3-lauroyloxypropyl)Gly][N(2-ethylhexyl)Gly][NDecylGly][N(2-ethylhexyl)Gly][N(3-lauroyloxypropyl)Gly]-NH2)" target_or_test_system=hEPO measured_value=2.05

Proceed to the following item.
Query: Entry CCCCCCCC(=O)OCCCN(CC(=O)N(CC(=O)N(CC(=O)N(CCCOC(=O)CCCCCCC)CC(=O)N(CC(N)=O)CC(CCCC)CCCCCC)CC(CC)CCCC)CC(CCCC)CCCCCC)C(=O)CN(CC(CC)CCCC)C(=O)CNC(CO)CO (centres unmarked) [Compound 104] (H-[N(CH(CH2OH)2)Gly][N(2-ethylhexyl)Gly][Gly(N-(CH2)3O-octanoyl)][X2][N(2-ethylhexyl)Gly][Gly(N-(CH2)3O-octanoyl)][X2]-NH2) : reported log10 hEPO = ?
Response: 2.84
